// provenance: ChEMBL document CHEMBL1132280

# Target: Proto-oncogene tyrosine-protein kinase Src (Homo sapiens)
# Sequence (P12931 2-536 limits assumed): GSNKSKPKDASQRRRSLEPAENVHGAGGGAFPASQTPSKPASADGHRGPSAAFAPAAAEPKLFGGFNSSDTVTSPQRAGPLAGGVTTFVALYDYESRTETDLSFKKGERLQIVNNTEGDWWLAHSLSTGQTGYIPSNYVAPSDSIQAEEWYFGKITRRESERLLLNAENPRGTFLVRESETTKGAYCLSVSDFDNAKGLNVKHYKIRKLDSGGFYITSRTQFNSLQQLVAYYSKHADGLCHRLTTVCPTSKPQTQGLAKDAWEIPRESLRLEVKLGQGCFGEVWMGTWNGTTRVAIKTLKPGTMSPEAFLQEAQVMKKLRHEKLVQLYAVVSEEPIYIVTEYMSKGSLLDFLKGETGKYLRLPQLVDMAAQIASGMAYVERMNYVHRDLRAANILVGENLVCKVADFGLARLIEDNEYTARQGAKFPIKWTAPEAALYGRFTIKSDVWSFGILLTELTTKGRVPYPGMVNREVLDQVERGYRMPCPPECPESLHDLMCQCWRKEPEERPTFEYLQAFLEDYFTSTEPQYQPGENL
Square brackets hold non-standard residues; d marks the D form. Peptide text beside a SMILES is read from it. pY = N[C@@H](Cc1ccc(OP(=O)(O)O)cc1)C(=O)O
Label 1 when IC50 is strictly below 50 µM; at or above that, label 0.

Some entries whose results are on file:
Molecule	Label class
CC(=O)N[C@@H](Cc1ccc(OP(=O)(O)O)cc1)C(=O)N[C@@H](CCC(N)=O)c1nc(Cc2ccc(Cl)cc2Cl)no1	0
CC(=O)N[C@@H](Cc1ccc(OP(=O)(O)O)cc1)C(=O)N[C@@H](C)c1nc(Cc2ccc(C(F)(F)F)cc2)no1	0
CC(=O)N[C@@H](Cc1ccc(OP(=O)(O)O)cc1)C(=O)N[C@@H](CC(=O)O)C(=O)N[C@H](C(=O)N[C@@H](CC(C)C)C(N)=O)C(C)C (Ac-[pY]DVL-NH2)	0
CC(=O)N[C@@H](Cc1ccc(OP(=O)(O)O)cc1)C(=O)N[C@@H](CCc1ccccc1)c1nc(Cc2ccc(Cl)c(Cl)c2)no1	0
CC(=O)N[C@@H](Cc1ccc(OP(=O)(O)O)cc1)C(=O)N[C@@H](CCc1ccccc1)c1nc(Cc2ccc(C(F)(F)F)cc2)no1	0
CC(=O)N[C@@H](Cc1ccc(OP(=O)(O)O)cc1)C(=O)N[C@@H](CCC(N)=O)c1nc(Cc2cccc3ccccc23)no1	0

Answer whether the molecule "CC(=O)N[C@@H](Cc1ccc(OP(=O)(O)O)cc1)C(=O)N[C@@H](CO)c1nc(Cc2ccc3ccccc3c2)no1" has IC50 strictly less than 50 µM
0

Answer whether the molecule "C[C@H](NC(=O)[C@H](Cc1ccc(OP(=O)(O)O)cc1)NC(=O)Cc1cccs1)c1nc(Cc2ccc(C(F)(F)F)cc2)no1" has IC50 strictly less than 50 µM
0

Answer whether the molecule "CC(=O)N[C@@H](Cc1ccc(OP(=O)(O)O)cc1)C(=O)N[C@@H](C)c1nc(Cc2ccc(Cl)c(Cl)c2)no1" has IC50 strictly less than 50 µM
0

Answer whether the molecule "CC(=O)N[C@@H](Cc1ccc(OP(=O)(O)O)cc1)C(=O)N[C@@H](C)c1nc(Cc2ccc(Br)cc2)no1" has IC50 strictly less than 50 µM
1

Answer whether the molecule "CC[C@H](C)[C@H](NC(=O)[C@H](CCC(=O)O)NC(=O)[C@H](CCC(=O)O)NC(=O)[C@H](Cc1ccc(OP(=O)(O)O)cc1)NC(C)=O)C(N)=O" has IC50 strictly less than 50 µM
1

Answer whether the molecule "CC(=O)N[C@@H](Cc1ccc(OP(=O)(O)O)cc1)C(=O)N[C@@H](C)c1nc(Cc2ccc(Cl)c(Br)c2)no1" has IC50 strictly less than 50 µM
1

Answer whether the molecule "CC(=O)N[C@@H](Cc1ccc(OP(=O)(O)O)cc1)C(=O)N[C@@H](C)c1nc(Cc2ccc(F)cc2)no1" has IC50 strictly less than 50 µM
0
